test system: Saccharomyces cerevisiae; assay: protein stability index of tFT-peptide fusion (C-terminal peptide) (PSI (0-1 scale)); higher = more stable (slower turnover); details: genetic background: wild type; temperature: 30 C;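 further: PSI is a weighted mean of sequencing reads over stability bins, variants kept only with over 10 reads, mCherry proximal and sfGFP distal, peptide attached via GGGS linker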
Value kind: protein stability index
In your answer, state the number alone without any accompanying words.

-- ask Would you mind telling me what protein stability index value was observed for `GREGKHLGAPPS` ?
-- reply 0.68

-- ask Would you mind telling me what protein stability index value was observed for `GIDKTNHKQEKN` ?
-- reply 0.691

-- ask Would you mind telling me what protein stability index value was observed for `TPPSHTVGIWAS` ?
-- reply 0.683

-- ask Would you mind telling me what protein stability index value was observed for `PSPASPTPPLVQ` ?
-- reply 0.682

-- ask Would you mind telling me what protein stability index value was observed for `PQVSYYLLPPSS` ?
-- reply 0.711

-- ask Would you mind telling me what protein stability index value was observed for `GGGGRGLLDVGV` ?
-- reply 0.689
